# Tested on: SKOV3
# experiment: cell proliferation, tumor derived cell lines
# Format: cell-based
# experimental setup: Homo sapiens, SK-OV-3, Ovarian, 72 or 96 hours exposure
measurement label: IC50 (nM)

# input smiles, units, measured number
measured = [
    ("CCNC(=O)c1noc(-c2cc(C(C)C)c(O)cc2O)c1-c1ccc(CN2CCOCC2)cc1", "nM", 3.7),
]

* * *

# Tested on: BT474
# experiment: cell proliferation, tumor derived cell lines
# Format: cell-based
# experimental setup: Homo sapiens, BT-474, Breast, 72 or 96 hours exposure

# molecule, experimental system, IC50 / nM
data = [
    ("CCNC(=O)c1noc(-c2cc(C(C)C)c(O)cc2O)c1-c1ccc(CN2CCOCC2)cc1 [AUY922]", "BT474", 2.8),
]
